Assay: Plasma pharmacokinetics in phase I clinical trial NCT04836195 (oral daily dose)
Assay type: in vivo, human
Settings: human, plasma, oral, 140 mg, plasma; 140 mg; Cycle 1 D15; read-out: Tmax (median, range)
Measurement Type: Tmax (h)
Provide the reading as a plain figure in h.

In: Fill in: Tmax of Cc1c(N[S+](=O)(O)c2c(Cl)cc(-c3ccnc(N4CCNCC4)c3)cc2Cl)c(CC(C)C)nn1C is ___
Out: 2

---

Assay: Plasma, brain and CSF pharmacokinetics and brain tissue accumulation in mice (LC-MS/MS)
Assay type: in vivo, male C57BL/6 mice
Details: male, C57BL/6, mouse; oral gavage 5 mg/kg; Plasma
Measurement Type: Tmax (h)
Quick note: give the figure in h, leave out the unit.

In: For Cc1c(N[S+](=O)(O)c2c(Cl)cc(-c3ccnc(N4CCNCC4)c3)cc2Cl)c(CC(C)C)nn1C , what is its reported Tmax?
Out: 4
